Ref: ChEMBL document CHEMBL5029165

# Cholinesterase (Homo sapiens, UniProt P06276): pIC50 values follow
# Sequence (P06276 whole entry): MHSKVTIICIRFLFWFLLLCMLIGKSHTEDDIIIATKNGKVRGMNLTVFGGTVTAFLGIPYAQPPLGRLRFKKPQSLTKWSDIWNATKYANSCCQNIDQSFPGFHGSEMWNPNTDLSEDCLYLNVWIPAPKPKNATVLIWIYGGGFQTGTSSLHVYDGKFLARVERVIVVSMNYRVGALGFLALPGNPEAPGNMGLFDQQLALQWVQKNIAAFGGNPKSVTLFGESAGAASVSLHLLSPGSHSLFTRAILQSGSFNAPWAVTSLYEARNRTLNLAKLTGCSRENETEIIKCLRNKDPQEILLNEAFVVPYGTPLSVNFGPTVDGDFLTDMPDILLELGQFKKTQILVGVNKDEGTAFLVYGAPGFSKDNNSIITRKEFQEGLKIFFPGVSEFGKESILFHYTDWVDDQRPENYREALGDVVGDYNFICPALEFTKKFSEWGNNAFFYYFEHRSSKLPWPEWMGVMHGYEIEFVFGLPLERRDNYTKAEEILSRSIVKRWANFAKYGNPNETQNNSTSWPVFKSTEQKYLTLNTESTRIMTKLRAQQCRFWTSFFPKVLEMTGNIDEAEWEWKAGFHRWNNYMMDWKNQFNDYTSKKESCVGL
In textbook form, pIC50 equals minus log to base ten of the concentration in mol/L.

smiles_repr=O=C(O[C@@H]1C=C[C@]23CCN(Cc4cc5c(cc42)OCO5)[C@H]3C1)c1ccccc1[N+](=O)[O-] assay_metric=pIC50 numeric_value=5.85

Query: # get_value(readout= pIC50, system= Cholinesterase (Homo sapiens, UniProt P06276)) for "CO[C@H]1C=C2[C@H]3CN(Cc4cc5c(cc43)OCO5)[C@H]2C[C@@H]1OC(=O)N1CCCCC1"
Result: 5.18

Query: Report pIC50 for "CO[C@H]1C=C2[C@H]3CN(Cc4cc5c(cc43)OCO5)[C@H]2C[C@@H]1OC(=O)c1ccc([N+](=O)[O-])cc1Cl" tested on Cholinesterase (Homo sapiens, UniProt P06276).
Result: 4.77

* * *

Molecular target: Acetylcholinesterase (Homo sapiens)
Assay Metric: IC50

smiles_repr=CO[C@H]1C[C@H]2C(=C[C@@H]1OC(=O)c1ccc([N+](=O)[O-])cc1Cl)[C@H]1CN2Cc2cc3c(cc21)OCO3 assay_metric=IC50 result="> 100 µM"
smiles_repr=COc1ccccc1C(=O)O[C@H]1CN2Cc3cc4c(cc3[C@]13C=C[C@@H](O)C[C@H]23)OCO4 assay_metric=IC50 result="90 µM"
smiles_repr=COc1ccccc1C(=O)O[C@H]1C=C2[C@H]3CN(Cc4cc5c(cc43)OCO5)[C@H]2C[C@@H]1OC assay_metric=IC50 result="> 100 µM"
smiles_repr=Cc1ccccc1C(=O)O[C@@H]1C=C[C@]23CCN(Cc4cc5c(cc42)OCO5)[C@H]3C1 assay_metric=IC50 result="> 100 µM"
smiles_repr=CO[C@H]1C[C@H]2C(=C[C@@H]1OC(=O)c1ccc(C)cc1)[C@H]1CN2Cc2cc3c(cc21)OCO3 assay_metric=IC50 result="> 100 µM"

Query: Give its IC50 value. Item: "CO[C@H]1C=C2[C@H]3CN(Cc4cc5c(cc43)OCO5)[C@H]2C[C@@H]1OC(=O)c1ccc([N+](=O)[O-])cc1Cl"
Result: > 100 µM

Query: Look up IC50: "CO[C@H]1C=C2[C@H]3CN(Cc4cc5c(cc43)OCO5)[C@H]2C[C@@H]1OC(=O)c1ccc(C)c([N+](=O)[O-])c1"
Result: > 100 µM

* * *

Target: Acetylcholinesterase (Homo sapiens, UniProt P22303)
Sequence (P22303 whole entry): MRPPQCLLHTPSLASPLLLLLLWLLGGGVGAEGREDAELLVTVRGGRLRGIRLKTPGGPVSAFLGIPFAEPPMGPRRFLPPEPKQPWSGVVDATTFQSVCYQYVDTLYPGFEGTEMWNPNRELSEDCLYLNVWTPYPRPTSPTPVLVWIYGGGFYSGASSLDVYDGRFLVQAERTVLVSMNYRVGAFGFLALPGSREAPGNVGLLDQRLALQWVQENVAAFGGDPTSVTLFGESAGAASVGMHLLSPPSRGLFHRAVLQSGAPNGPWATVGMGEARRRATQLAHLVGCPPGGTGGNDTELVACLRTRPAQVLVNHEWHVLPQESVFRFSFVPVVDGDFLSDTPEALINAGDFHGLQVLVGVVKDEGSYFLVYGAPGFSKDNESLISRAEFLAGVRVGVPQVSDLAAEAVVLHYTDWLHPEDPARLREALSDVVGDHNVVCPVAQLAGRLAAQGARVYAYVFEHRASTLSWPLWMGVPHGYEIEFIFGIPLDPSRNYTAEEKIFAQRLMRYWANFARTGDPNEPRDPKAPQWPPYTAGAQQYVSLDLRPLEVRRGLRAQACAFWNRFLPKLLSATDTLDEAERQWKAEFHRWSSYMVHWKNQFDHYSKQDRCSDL
pIC50: −log10 of the molar value.
Assay Metric: pIC50

Here are 6 compounds together with their reported answers.
smiles_repr=O=C(O[C@@H]1C=C[C@]23CCN(Cc4cc5c(cc42)OCO5)[C@H]3C1)c1ccccc1[N+](=O)[O-] result=4.22
smiles_repr=COc1ccc(C(=O)O[C@H]2C=C3[C@H]4CN(Cc5cc6c(cc54)OCO6)[C@H]3C[C@@H]2OC)cc1OC result="< 4.00"
smiles_repr=CO[C@H]1C[C@H]2C(=C[C@@H]1OC(=O)c1ccccc1[N+](=O)[O-])[C@H]1CN2Cc2cc3c(cc21)OCO3 result="< 4.00"
smiles_repr=CO[C@H]1C[C@H]2C(=C[C@@H]1OC(=O)c1ccc(C)c([N+](=O)[O-])c1)[C@H]1CN2Cc2cc3c(cc21)OCO3 result=5.36
smiles_repr=COc1c2c(cc3c1OCO3)[C@]13C=C[C@H](OC)C[C@H]1N(C2)C[C@H]3OC(=O)c1cccc2ccccc12 result="< 4.00"
smiles_repr=CO[C@H]1C[C@H]2C(=C[C@@H]1OC(=O)c1ccccc1C)[C@H]1CN2Cc2cc3c(cc21)OCO3 result="< 4.00"

Now for the compound whose pIC50 we want.
Query: Provide value of pIC50 for this record tested with Acetylcholinesterase (Homo sapiens, UniProt P22303): "CO[C@H]1C[C@H]2C(=C[C@@H]1OC(=O)c1cccs1)[C@H]1CN2Cc2cc3c(cc21)OCO3"
Result: < 4.00

* * *

compounds and their reported pIC50
Target: Acetylcholinesterase (Homo sapiens)
pIC50: −log10 of the molar value.

Past entries and their recorded results:
smiles_repr=CO[C@H]1C[C@H]2C(=C[C@@H]1OC(=O)c1ccccc1)[C@H]1CN2Cc2cc3c(cc21)OCO3 system_under_test="Acetylcholinesterase (Homo sapiens)" assay_metric=pIC50 result="< 4.00"
smiles_repr=CO[C@H]1C[C@H]2C(=C[C@@H]1OCCN1CCCCC1)[C@H]1CN2Cc2cc3c(cc21)OCO3 system_under_test="Acetylcholinesterase (Homo sapiens)" assay_metric=pIC50 result="< 4.00"
smiles_repr=CO[C@H]1C=C2[C@H]3C[N@@](Cc4cc5c(cc43)OCO5)[C@H]2C[C@@H]1O system_under_test="Acetylcholinesterase (Homo sapiens)" assay_metric=pIC50 result="< 4.00"
smiles_repr=O=C(O[C@H]1CN2Cc3cc4c(cc3[C@]13C=C[C@@H](O)C[C@H]23)OCO4)c1ccccc1Cl system_under_test="Acetylcholinesterase (Homo sapiens)" assay_metric=pIC50 result=4.89
smiles_repr=CO[C@H]1C[C@H]2C(=C[C@@H]1OC(=O)c1ccc([N+](=O)[O-])cc1)[C@H]1CN2Cc2cc3c(cc21)OCO3 system_under_test="Acetylcholinesterase (Homo sapiens)" assay_metric=pIC50 result="< 4.00"

Query: Field request: pIC50 | item: "O=C(O[C@H]1CN2Cc3cc4c(cc3[C@]13C=C[C@@H](O)C[C@H]23)OCO4)c1cccc([N+](=O)[O-])c1"
Result: 5.40

Query: What does the record list as pIC50 for "CO[C@H]1C=C2[C@H]3CN(Cc4cc5c(cc43)OCO5)[C@H]2C[C@@H]1OC(=O)c1cc([N+](=O)[O-])ccc1Cl" ?
Result: < 4.00

Query: # query: pIC50 of entry "CO[C@H]1C[C@H]2C(=C[C@@H]1OC(=O)c1cccc([N+](=O)[O-])c1)[C@H]1CN2Cc2cc3c(cc21)OCO3"
Result: < 4.00

Query: Param item = "CO[C@H]1C=C2[C@H]3CN(Cc4cc5c(cc43)OCO5)[C@H]2C[C@@H]1OC(=O)N1CCCCC1" ; retrieve measured pIC50.
Result: < 4.00

Query: Tell me the measured pIC50 of "COc1cccc(C(=O)O[C@H]2C=C3[C@H]4CN(Cc5cc6c(cc54)OCO6)[C@H]3C[C@@H]2OC)c1" , please.
Result: < 4.00

Query: I am curious: what pIC50 value has been reported for "CO[C@H]1C[C@H]2C(=C[C@@H]1OC(=O)c1ccc(Cl)c([N+](=O)[O-])c1)[C@H]1CN2Cc2cc3c(cc21)OCO3" ?
Result: 5.79

Query: Quick one: pIC50 for "CO[C@H]1C[C@H]2C(=C[C@@H]1OC(=O)c1ccoc1)[C@H]1CN2Cc2cc3c(cc21)OCO3" ?
Result: < 4.00

* * *

Molecular target: UniProt P22303
Assay: Inhibition of human AChE at 100 uM using acetylthiocholine as substrate by Ellman's method
Assay Metric: inhibition (%)
Kindly provide the numeric value in % only, without the unit symbol.

Worked examples, 3 molecules total:
smiles_repr=CO[C@H]1C=C2[C@H]3CN(Cc4cc5c(cc43)OCO5)[C@H]2C[C@@H]1OC(=O)c1ccc([N+](=O)[O-])cc1Cl assay_metric=inhibition uom=% numeric_value=2.3
smiles_repr=CO[C@H]1C[C@H]2C(=C[C@@H]1OC(=O)c1cccc(C)c1)[C@H]1CN2Cc2cc3c(cc21)OCO3 assay_metric=inhibition uom=% numeric_value=18.2
smiles_repr=CO[C@H]1C=C2[C@H]3CN(Cc4cc5c(cc43)OCO5)[C@H]2C[C@@H]1OC(=O)c1ccc(Cl)c([N+](=O)[O-])c1 assay_metric=inhibition uom=% numeric_value=4.8

# context switch: different molecule, same inhibition
Query: I'd like to know its inhibition. The molecule in question is "CO[C@H]1C[C@H]2C(=C[C@@H]1OC(=O)c1ccccc1[N+](=O)[O-])[C@H]1CN2Cc2cc3c(cc21)OCO3"
Result: 34.1

* * *

Biological target: Cholinesterase (Homo sapiens, UniProt P06276)
Experiment: Inhibition of human BuChE using butyrylthiocholine chloride as substrate by Ellman's method
Assay Metric: IC50

// known answers, use as guide
molecule=CO[C@H]1C[C@H]2C(=C[C@@H]1OC(=O)C1CCCCC1)[C@H]1CN2Cc2cc3c(cc21)OCO3 system_under_test="Cholinesterase (Homo sapiens, UniProt P06276)" result="> 100 µM"
molecule=O=C(O[C@H]1CN2Cc3cc4c(cc3[C@]13C=C[C@@H](O)C[C@H]23)OCO4)c1ccccc1Cl system_under_test="Cholinesterase (Homo sapiens, UniProt P06276)" result="5.6 µM"
molecule=COc1ccc(C(=O)O[C@H]2C=C3[C@H]4CN(Cc5cc6c(cc54)OCO6)[C@H]3C[C@@H]2OC)cc1OC system_under_test="Cholinesterase (Homo sapiens, UniProt P06276)" result="> 100 µM"
molecule=CO[C@H]1C[C@H]2C(=C[C@@H]1OC(=O)c1ccc([N+](=O)[O-])cc1Cl)[C@H]1CN2Cc2cc3c(cc21)OCO3 system_under_test="Cholinesterase (Homo sapiens, UniProt P06276)" result="> 100 µM"
molecule="CO[C@H]1C=C2[C@H]3C[N@@](Cc4cc5c(cc43)OCO5)[C@H]2C[C@@H]1O [MONTANINE]" system_under_test="Cholinesterase (Homo sapiens, UniProt P06276)" result="> 100 µM"

Moving on to another molecule below.
Query: What measured IC50 goes with "CO[C@H]1C[C@H]2C(=C[C@@H]1OC(=O)c1ccccc1[N+](=O)[O-])[C@H]1CN2Cc2cc3c(cc21)OCO3" ?
Result: > 100 µM
